- subject.of.test: SARS-CoV-2 Spike S1-His (SARS-CoV-2, UniProt P0DTC2 16-685)
- measurement.notes: Octet BLI, IgG, monovalent
measurement.kind: pKd
# reply with the number alone; pKd is -log10 of concentration in mol/L

Prompt line: Using the record for A-2 (antibody, V domains shown) VH: EVQLVESGGGLIQPGGSLRLSCAASGFTVSSNYMSWVRQAPGKGLEWVSIIYSGGSTYYADSVKGRFTISRDNSKNTLYLQMNSLRAEDTAVYYCARAPSGEYGDPIYYWGQGTLVTVSS VL: QSVLTQPPSASASLGASVKLTCTLSSGHSTYTIAWHQQQPEKGPRYLMKLNSDGSHSKGDGIPDRFSGSSSGAERYLTISSLQSEDEADYYCQTWGTGNHWVFGGGTKLTVL , report its pKd.
Response line: 7.84

Prompt line: Bench note: what pKd did A-1 (antibody, V domains shown) VH: EVQLVESGGGVVQPGGSLRLSCAASGFAFSTYWMHWVRQAPGKGLVWVSRINGDGSGTNYADSVKGRFTISRDNAKSTLYLQMNSLRTEDTAVYYCTRTAGRGAYDFGRFDPWGQGTLVTVSS VL: DIVLTQTPLSLPVTPGEPASISCRSSQSLLHSNGYNYLDWYLQKAGQSPQLLVFLGSNRASGVPDRFSGSASGTDFTLKISRVEAEDVGVYYCMQALQIPITFGQGTRLEIK show?
Response line: 8.02

Prompt line: Dear colleague, I am looking for the recorded pKd of the following binder: A-8 (antibody, V domains shown) VH: EVQLLESGGGLVQPGGSLRLSCAASGFTFSSYAMSWVRQAPGKGLEWVSAISGSGNSTSYADSVKGRFTLSRDNSKNTLYLQMNSLRAEDTAIYYCAKGLGTRSFNWGAFDYWGQGTLVTVSS VL: DIRVTQSPSSLSASVGDRVTITCRASQGISYSLAWYQQKPGKAPKLLLYAASNLESGVPSRFSGSGSGTDYTLTVSSLQPEDFATYYCQQYYSTPWTFGQGTKVEIK
Response line: 9.32

Prompt line: What value of measured pKd is listed for A-17 (antibody, V domains shown) VH: EVQLQESGPGLVKPSETLSLTCTVSGGSISSYYWSWIRQPPGKGLEWIGYIYYSGSTNYNPSLKSRVTISVGTSKNQFSLKLSSVTAADTAVYYCAKSASDEPPPSTAAAGSHYYYYGMDVWGQGTTVTVSS VL: EIVMTQSPLSLPVTPGEPASISCRSSQSLLHSNGYNYLDWYLQKPGQSPHVLIYLGSNRASGVPDRFSGSGSGTDFTLKISRVEAEDVGVYYCMQALQTPNTFGQGTKLEIK ?
Response line: 8.80

Prompt line: Tell me the measured pKd of A-18 (antibody, V domains shown) VH: EVQLLESGGGLVQPGGSLRLSCAASGFTFSRYWMHWVRQAPGKGLVWVSRINSDGSSTTYADSVKGRFTISRDNAKNTLYLQMNSLRAEDTAVYYCARELYYYDSRGAEEGEGWFDPWGQGTLVTVSS VL: QSVLTQPPSVSGAPGQRVTISCTGISSNIGAGYDVHWYQQLPGTAPKLLIYGNSNRPSGVPDRFSASKSGTSAPLAITGLQAEDEADYYCQSSDRSLSGSVFGTGTKLTVL , please.
Response line: 8.96

Prompt line: Data request, read-out pKd, for A-11 (antibody, V domains shown) VH: EVQLVESGAEVKKPGSSVMVSCKASGGTFSRYAISWVRQAPGQGLEWMGGIIPVFGIVHYAQKFQGRVTITADKSTSTAYMELSSLRSEDTAAYYCARDRQQQPSPYYYHGMDVWGQGTTVTVSS VL: DIRLTQSPSSLSASVGDRVTITCQASQDISNYLNWYQQKPGKAPKLLIYDASNLETGVPTRFSGSGSGTDFTFTISSLQPEDIATYYCQQYDNLPLFGGGTKVEIK
Response line: 8.16

Prompt line: Reported pKd, binder A-16 (antibody, V domains shown) VH: QVQLVESGGGLVQPGRSLRLSCAASGFTFDDYAMHWVRQAPGKGLEWVSGISWNSGTIGYADSVKGRFIISRDNAKNSLYLQMNSLRGEDMALYYCGKDRKREDPSLGGMDVWGQGTTVTVSS VL: SYELTQPPSVSVAPGQTARITCGGNNIGSKSVHWYQQKPGQAPVLVVYDDTDRPSGIPERFSGSNSGNTATLTISRVEAGDEADYYCQVWDSSSDHYVFGTGTKLTVL : ____
Response line: 8.31

Prompt line: Please give the measured pKd for this binder: A-13 (antibody, V domains shown) VH: QVQLVQSGAEVKKPGASVKVSCKASGYTFTDYYMHWVRQAPGQGLEWMGWINPNSGGTNSAQKFQGRVTMTRDTSINTAYMELSRLRSDDTAVYFCARDSHLAMVRGDFEYWGQGTLVTVSS VL: QSVLTQPASVSGSPGQSITISCTGTSSDVESYNVVSWYQQHPGKAPKLMIYEVSKRPSGVSHRFSGSKSGNTASLTISGLQAEDESDYYCCSYAGNSTWVFGGGTKLTVL
Response line: 8.31

Prompt line: What value of pKd has been recorded for this entry: A-6 (antibody, V domains shown) VH: QVQLVQSGGGVVQPGRSLRLSCAASGFTFSNFAMHWVRQAPGKGLEWVAVILYDGINKYYADSVKGRFTISRGNSKNTLSLQMNSLRAEDTAVYYCARAQNYYDRSGTLQLDAFDIWGQGTMVTVSS VL: DIVMTQSPSSLSASVGDRVTITCRASQGIRNDLGWYQQKPGKAPKLLIYAASSLQSGVPSRFSGSGSGTDFTLTISSLQPEDFATYYCLQDYNYPLTFGGGTKVEIK
Response line: 8.43

Prompt line: Given the entry A-15 (antibody, V domains shown) VH: QVQLVQSGAEVKKPGASVKVSCKASGYTSSSYYMHWVRQAPGQGPEWMGIINPGGTSTSYAQKFQGRVTMTRDTSTSTVYMELSSLRSEDTAVYYCAIGYCSTTSCRWGDAFDIWGQGTMVTVSS VL: DIQVTQSPSSLSASVGDRVTITCRASQSISSYLNWYQQKPEKAPNLLIYAASSLQSGVPSRFSGSGSGTDFTLTISSLQPEDFATYYCQQSSTTPPTFGQGTKVEIK , report its measured pKd.
Response line: 8.11

Prompt line: GET /values?readout=pKd&item= A-5 (antibody, V domains shown) VH: QVQLVESGGGLIQPGESLRLSCAASEFIVSRNYMSWVRQAPGKGLEWVSVIYSGGNTYYADSVKGRFTISRDNSKNTLYLQMNSLRAEDTAVYYCARDLRGPGCFDFWGQGTTVTVSS VL: DIQVTQSPSSLSASVGDRVTITCQASQDISNFLNWYQQKPGKAPKLLIYDASNLETGVPSRFSASGSGTEFTFTISSLQPEDIATYYCQQYDNLRVTFGGGTKLEIK
Response line: 7.43
